Tested system: NS2B−NS3 protease (His-tagged NS2B / DENV2 NS3-MBP fusion protein) (Dengue virus type 2, UniProt P29990)
Sequence (P29990 1476-1653 limits assumed): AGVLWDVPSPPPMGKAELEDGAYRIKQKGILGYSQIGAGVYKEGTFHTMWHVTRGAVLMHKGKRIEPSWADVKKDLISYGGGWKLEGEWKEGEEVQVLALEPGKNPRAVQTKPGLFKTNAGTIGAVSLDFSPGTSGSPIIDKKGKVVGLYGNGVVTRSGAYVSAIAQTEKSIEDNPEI
Run description: NS2B−NS3 protease inhibition assay with FRET substrate
Listed below: IC50 values for each entry.
Parameter: IC50

Molecule | Parameter | Experimental result
O=C1OC2(c3ccc(O)cc3Oc3cc(O)ccc32)c2ccc(NC(=S)NCCS)cc21 [JMX0912] | IC50 | 88 µM
O=C1OC2(c3ccccc31)c1ccc(O)c(I)c1Oc1c2ccc(O)c1I [JMX0903] | IC50 | 60 µM
O=C(O)c1ccc2c(c1)C(=O)OC21c2ccc(O)cc2Oc2cc(O)ccc21 [JMX0920] | IC50 | > 100 µM
O=C1OC2(c3ccccc31)c1ccc(O)c(Cl)c1Oc1c2ccc(O)c1Cl [JMX0892] | IC50 | > 60 µM
O=C1OC2(c3cc(I)c(O)c(I)c3Oc3c2cc(I)c(O)c3I)c2c(Cl)c(Cl)c(Cl)c(Cl)c21 [JMX0902] | IC50 | 2.6 µM
O=C1OC2(c3cc(Cl)c(O)cc3Oc3cc(O)c(Cl)cc32)c2ccccc21 [JMX0897] | IC50 | 23 µM
O=C1OC2(c3ccc(O)cc3Oc3cc(O)ccc32)c2ccccc21 [JMX0915] | IC50 | > 100 µM
O=C1OC2(c3ccccc31)c1ccc(O)c(Br)c1Oc1c2ccc(O)c1Br [JMX0893] | IC50 | > 60 µM

---

Tested system: NS2B−NS3 interactions (NLuc-NS2B49−66 / GST-CLuc-NS3) (Dengue virus type 2, UniProt P29990)
Run description: Split luciferase complementation
Type: binding
Condition info: IC50-SLC (NS2B–NS3 interaction), split luciferase complementation, n = 3
pIC50: −log10 of the molar value.
Listed below: pIC50 values for each entry.
Parameter: pIC50

Entry smiles | Comparison sign | Experimental result
O=C(O)c1ccc2c(c1)C(=O)OC21c2ccc(O)cc2Oc2cc(O)ccc21 | = | 4.28
O=C1OC2(c3ccc(O)cc3Oc3cc(O)ccc32)c2ccc(NC(=S)NCCS)cc21 | < | 4.00
O=C1OC2(c3ccc(O)cc3Oc3cc(O)ccc32)c2ccccc21 | < | 4.00
O=C1OC2(c3ccccc31)c1cc(Br)c(O)c(Br)c1Oc1c2cc(Br)c(O)c1Br | = | 5.47
O=C1OC2(c3cc(I)c(O)c(I)c3Oc3c2cc(I)c(O)c3I)c2c(Cl)c(Cl)c(Cl)c(Cl)c21 | = | 6.37
O=C1OC2(c3cc(Cl)c(O)cc3Oc3cc(O)c(Cl)cc32)c2ccccc21 | = | 4.32
O=C1OC2(c3ccccc31)c1ccc(O)c(Cl)c1Oc1c2ccc(O)c1Cl | = | 4.30
O=C1OC2(c3ccccc31)c1ccc(O)c(Br)c1Oc1c2ccc(O)c1Br | = | 4.80
O=C1OC2(c3ccccc31)c1ccc(O)c(I)c1Oc1c2ccc(O)c1I | = | 4.82

---

Listed below: IC50 values for each entry.
Tested system: NS2B−NS3 interactions (NLuc-NS2B49−66 / GST-CLuc-NS3) (Dengue virus type 2, UniProt P29990)
Run description: Split luciferase complementation
Type: binding
Condition info: IC50-SLC

Compound | IC50
O=C(O)c1ccc2c(c1)C(=O)OC21c2ccc(O)cc2Oc2cc(O)ccc21 [JMX0920] | > 50 µM
O=C1OC2(c3ccccc31)c1ccc(O)c(Cl)c1Oc1c2ccc(O)c1Cl [JMX0892] | ~50 µM
O=C1OC2(c3ccc(O)cc3Oc3cc(O)ccc32)c2ccccc21 [JMX0915] | > 50 µM
O=C1OC2(c3cc(Cl)c(O)cc3Oc3cc(O)c(Cl)cc32)c2ccccc21 [JMX0897] | ~50 µM
O=C1OC2(c3ccc(O)cc3Oc3cc(O)ccc32)c2ccc(NC(=S)NCCS)cc21 [JMX0912] | > 50 µM
